Biological target: T1, TNF receptor 1 Fc fusion protein (R&D Systems) (human, UniProt P19438 30-211, limits assumed)
T1 construct: bought; also called recombinant TNF receptor 1 (p55); TNFR1-Fc; not shown: Fc part of the bought fusion protein; not described
T1 sequence: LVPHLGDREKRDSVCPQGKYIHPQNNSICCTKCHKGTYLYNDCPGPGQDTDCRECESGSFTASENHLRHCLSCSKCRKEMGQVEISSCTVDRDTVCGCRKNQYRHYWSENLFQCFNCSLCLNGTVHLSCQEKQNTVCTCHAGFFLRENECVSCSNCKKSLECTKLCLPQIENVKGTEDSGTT
Assay: receptor binding assay
pIC50: −log10 of the molar value.
// reported pIC50 per item
assay_readout: pIC50

1) TAR2h-10-3 (other, anti-human TNFR1 dAb) EVQLLESGGGLVQPGGSLRLTCAASGFTFEWYWMGWVRQAPGKGLEWVSAISGSGGSTYYADSVKGRFTISRDNSKNTLYLQMNSLRAEDTAVYYCAKVKLGGGPNFDYWGQGTLVTVSS | 7.96
2) TAR2h-10-1 (other, anti-human TNFR1 dAb) EVQLLESGGGLVQPGGSLRLSCAASGFTFEWYWMGWVRQAPGKGLEWVSAISGSGGSTYYADSVKGRFTISRDNSKNTLYLQMNNLRAEDTAVYYCAKVKLGGGPNFDYRGQGTLVTVSS | 8.00
3) TAR2h-42 (other, anti-human TNFR1 dAb) EVQLLESGGGLVQPGGSLRLSCAASGFTFAKYNMYWVRQAPGKGLEWVSAISPKGQHTYYADSVKGRFTISRDNSKNTLYLQMNSLRAEDTAVYYCAEGMGSDAITFDYWGQGTLVTVSS | 7.82
